Study Target: Muscarinic acetylcholine receptor M4 (Homo sapiens) (UniProt P08173)
Sequence (P08173 whole entry, looked up): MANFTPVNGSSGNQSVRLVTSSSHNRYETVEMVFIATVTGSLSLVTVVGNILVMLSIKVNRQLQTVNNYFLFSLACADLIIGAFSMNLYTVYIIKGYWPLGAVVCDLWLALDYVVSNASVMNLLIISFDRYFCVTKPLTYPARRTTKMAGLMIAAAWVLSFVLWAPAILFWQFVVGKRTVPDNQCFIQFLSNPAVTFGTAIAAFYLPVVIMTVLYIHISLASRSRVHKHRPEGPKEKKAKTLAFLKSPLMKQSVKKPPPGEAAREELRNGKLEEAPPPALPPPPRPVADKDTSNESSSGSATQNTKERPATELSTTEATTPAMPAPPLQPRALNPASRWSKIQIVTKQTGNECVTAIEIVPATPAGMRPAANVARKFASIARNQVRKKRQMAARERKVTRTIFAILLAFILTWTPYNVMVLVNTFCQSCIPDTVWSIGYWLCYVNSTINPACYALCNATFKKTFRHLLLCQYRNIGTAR
Method Notes: Positive allosteric modulation of human M4 receptor expressed in CHO cells co-expressing Gqi5 assessed as increase in acetylcholine-induced calcium mobilization incubated with EC20 ACh for 140 secs and subsequent EC80 Ach addition further incubated for 120 secs by Fluo-4-AM dye based fluorescence …
For each record, check the reported Emax: if it is below 80% write TRUE, else write FALSE.

>>> df
                           smiles_structure  class_name
0  Cc1nnc2ccc(C(=O)NC3CN(c4ccc(Cl)cn4)C3)cc2c1C        TRUE
1  Cc1nnc2ccc(C(=O)NC3CN(c4ncc(C#N)cc4Cl)C3)cc2c1C        TRUE
2  Cc1nnc2ccc(C(=O)NC3CN(c4ncccc4F)C3)cc2c1C       FALSE
3  Cc1nnc2ccc(C(=O)NC3CN(c4ncc(C(F)(F)F)cn4)C3)cc2c1C        TRUE
4  Cc1nnc2ccc(C(=O)NC3CN(c4ncc(C(F)(F)F)cc4Cl)C3)cc2c1C        TRUE
5  Cc1nnc2ccc(C(=O)NC3CN(c4ncccc4Cl)C3)cc2c1C       FALSE
6  Cc1nnc2ccc(C(=O)NC3CN(c4ncc(C5CC5)cc4Cl)C3)cc2c1C        TRUE
7  Cc1nnc2ccc(C(=O)NC3CN(c4ncc(OC(C)C)cn4)C3)cc2c1C       FALSE

====

Method Notes: Intrinsic clearance in human microsomes
Format: ADME, Microsome
For each record, check the reported CLint scaled: if it is below 60 mL/min/kg write fulfilled, else write not fulfilled.

                           smiles_structure     class_name
0  Cc1nnc2ccc(C(=O)NC3CN(c4ccc(F)c(F)c4)C3)cc2c1C      fulfilled
1  Cc1nnc2ccc(C(=O)NC3CN(c4ncc(Cl)cc4F)C3)cc2c1C      fulfilled
2  Cc1nnc2ccc(C(=O)NC3CN(c4ncc(F)cc4Cl)C3)cc2c1C  not fulfilled
3  Cc1nnc2ccc(C(=O)NC3CN(c4ncc(C#N)cc4Cl)C3)cc2c1C  not fulfilled
4  COc1cc(N2CC(NC(=O)c3ccc4nnc(C)c(C)c4c3)C2)c(Cl)cn1      fulfilled

====

Method Notes: Intrinsic clearance in rat microsomes
Assay type: ADME, Microsome
Quick reference: CLint scaled of the listed items.
Measured Property: CLint scaled (mL/min/kg)

                           smiles_structure  test_result
0  Cc1nnc2ccc(C(=O)NC3CN(c4ncc(Cl)cc4F)C3)cc2c1C           12
1  COc1cc(N2CC(NC(=O)c3ccc4nnc(C)c(C)c4c3)C2)c(Cl)cn1           17
2  Cc1nnc2ccc(C(=O)NC3CN(c4ccc(F)c(F)c4)C3)cc2c1C           26
3  Cc1nnc2ccc(C(=O)NC3CN(c4ncc(F)cc4Cl)C3)cc2c1C           17
4  Cc1nnc2ccc(C(=O)NC3CN(c4cc(Cl)ncc4Cl)C3)cc2c1C           32
5  Cc1nnc2ccc(C(=O)NC3CN(c4ncc(C#N)cc4Cl)C3)cc2c1C           17

====

Quick reference: Kp at 0.25 h of the listed items.
Method Notes: Brain to plasma partition coefficient, Kp of the compound in Sprague-Dawley rat at 0.2 mg/kg, iv measured for 0.25 hrs
Assay type: ADME, organism-based
Condition Context: brain and plasma
Measured Property: Kp at 0.25 h

>>> print(df.to_string())
                           smiles_structure  op  test_result
0  Cc1nnc2ccc(C(=O)NC3CN(c4ncc(F)cc4Cl)C3)cc2c1C   =         0.12
1  Cc1nnc2ccc(C(=O)NC3CN(c4ncc(C#N)cc4Cl)C3)cc2c1C   =         0.04
2  Cc1nnc2ccc(C(=O)NC3CN(c4cc(Cl)ncc4Cl)C3)cc2c1C   =         0.03
3  COc1cc(N2CC(NC(=O)c3ccc4nnc(C)c(C)c4c3)C2)c(Cl)cn1   =         0.09
4  Cc1nnc2ccc(C(=O)NC3CN(c4ncc(Cl)cc4F)C3)cc2c1C   =         0.03
5  Cc1nnc2ccc(C(=O)NC3CN(c4ccc(F)c(F)c4)C3)cc2c1C   <         0.05
